assay: Plasma protein binding in mouse at 1 to 100 uM incubated for 16 hrs by UPLC-MS/MS analysis; assay type: ADME, cell-free; settings: dose 1-100 µM, read-out: PPB (converted)
readout_kind: fraction unbound at 16 h, up to 100 µM
Give bare numbers.

-- ask What does the record list as fraction unbound at 16 h, up to 100 µM for CC(C)NC[C@@H](C(=O)N1CCN(c2ncnc3c2[C@H](C)CC(=O)N3)CC1)c1ccc(Cl)cc1 ?
-- reply 0.477

----------
experiment: AUC (0 to t) in NCG mouse xenografted with human LNCaP cells at 50 mg/kg administered daily once for 18 to 21 days and measured upto 10 hrs post last dose by LC-MS/MS analysis; type: ADME, organism-based; design: dose 50 mg/kg, time 18-21 day; conditions: in vivo
readout_kind: AUC(0-t)
# do not omit the unit; it follows the number

-- ask What does the record list as AUC(0-t) for CC(C)NC[C@@H](C(=O)N1CCN(c2ncnc3c2[C@H](C)CC(=O)N3)[C@H]2C[C@H]21)c1ccc(Cl)cc1 ?
-- reply 22000 ng·h/mL

Sourced from ChEMBL document CHEMBL5154942
